# Tested on: LOC_OS01G13800-cb001
# method-description: thermal shift delta Tm vs DMSO control; higher = stronger stabilization (binding);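 further: purified Escherichia coli-expressed rice kinase domain construct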
# conditions-used: 12.5 µM; protein concentration 2 µM
outcome-measure: thermal shift delta Tm (°C)

compound="Cc1nc(NC(=O)N2CCC[C@H]2C(N)=O)sc1-c1ccnc(C(C)(C)C(F)(F)F)c1 [Alpelisib (BYL719)]" experimental_system=LOC_OS01G13800-cb001 outcome_measure="thermal shift delta Tm" reported_result=-0.51
compound="CO[C@H]1C[C@@H]2CC[C@@H](C)[C@@](O)(O2)C(=O)C(=O)N2CCCC[C@H]2C(=O)O[C@H]([C@H](C)C[C@@H]2CC[C@@H](OP(C)(C)=O)[C@H](OC)C2)CC(=O)[C@H](C)/C=C(\\C)[C@@H](O)[C@@H](OC)C(=O)[C@H](C)C[C@H](C)/C=C/C=C/C=C/1C [Ridaforolimus (Deforolimus, MK-8669)]" experimental_system=LOC_OS01G13800-cb001 outcome_measure="thermal shift delta Tm" reported_result=0.18
compound=CC(C)(C)Cn1c(N)nc2ccc(-c3[nH]c(C(C)(C)C)nc3-c3ccc(F)cc3)nc21 experimental_system=LOC_OS01G13800-cb001 outcome_measure="thermal shift delta Tm" reported_result=-0.49
compound=NCC(=O)Nc1ccc(-n2nc(C(F)(F)F)cc2-c2ccc3c(ccc4ccccc43)c2)cc1 experimental_system=LOC_OS01G13800-cb001 outcome_measure="thermal shift delta Tm" reported_result=-0.76
compound=CNC(=O)c1ccc(Nc2ncc(C(F)(F)F)c(NCc3nccnc3N(C)S(C)(=O)=O)n2)cc1 experimental_system=LOC_OS01G13800-cb001 outcome_measure="thermal shift delta Tm" reported_result=-0.3
compound=COc1cc(N2CCN(C)CC2)ccc1Nc1nccc(-c2cn(C)c3cnccc23)n1 experimental_system=LOC_OS01G13800-cb001 outcome_measure="thermal shift delta Tm" reported_result=0.56

###

# System: LOC_OS05G16824-cb004
# method-description: thermal shift delta Tm vs DMSO control; higher = stronger stabilization (binding)
# conditions-used: 12.5 µM; protein concentration 2 µM
Structures can show the parent of a compound that is named as a salt.
We'd kindly ask you to apply these thermal shift delta Tm classes: bottom end = under -0.03 °C, midrange = from -0.03 °C up to 0.9 °C, top end = 0.9 °C and over

compound=c1cncc(CN2CCC(n3ncc4c(N5CCOCC5)nc(-c5ccc6[nH]ccc6c5)nc43)CC2)c1 label_class="bottom end"
compound=O=c1cc(N2CCOCC2)oc2c(-c3ccccc3)cccc12 label_class=midrange
compound="Cc1cc(C(=O)Nc2nc3cccc(Cl)c3n2[C@@H]2CCCCN(C(=O)/C=C/CN(C)C)C2)ccn1 [Nazartinib (EGF816, NVS-816)]" label_class=midrange
compound=O=C(Nc1cccc(Nc2ncc(Br)c(NCCc3cnc[nH]3)n2)c1)N1CCCC1 label_class="top end"
compound=Nc1ccc(C(=O)Nc2cccc(-c3nc(N4CCOCC4)c4oc5ncccc5c4n3)c2)cn1 label_class="bottom end"
compound="CNC(=O)c1cc(Oc2ccc(NC(=O)Nc3ccc(Cl)c(C(F)(F)F)c3)cc2)ccn1 [Sorafenib Tosylate]" label_class="top end"
compound="COc1nccc(-c2c(-c3ccc(F)cc3)ncn2C2CCC(O)CC2)n1 (configuration not stated)" label_class="top end"
compound=N#Cc1c(NC(=O)c2cccc3ccccc23)sc2c1CCCC2 label_class="bottom end"
compound=Cc1nc2c(-c3cnc(N)nc3)nc(N3CCOCC3)nc2n1C(C)C label_class=midrange
compound=Nc1ccc(-c2ccc3ncc4ccc(=O)n(-c5cccc(C(F)(F)F)c5)c4c3c2)cn1 label_class="top end"
compound=CN1CCN(CCOc2cc(OC3CCOCC3)c3c(Nc4c(Cl)ccc5c4OCO5)ncnc3c2)CC1 label_class="top end"
compound=CO[C@H]1C[C@@H]2CC[C@@H](C)[C@@](O)(O2)C(=O)C(=O)N2CCCC[C@H]2C(=O)O[C@H]([C@H](C)C[C@@H]2CC[C@@H](OP(C)(C)=O)[C@H](OC)C2)CC(=O)[C@H](C)/C=C(\C)[C@@H](O)[C@@H](OC)C(=O)[C@H](C)C[C@H](C)/C=C/C=C/C=C/1C label_class="bottom end"
compound="CCCCCCCCCC(=O)CC(O)S(=O)(=O)O (configuration not stated) [Sodium Houttuyfonate]" label_class="bottom end"
compound=CNS(=O)(=O)C[C@H]1CC[C@H](N(C)c2[nH]cnc3nccc2-3)CC1 label_class=midrange
